Reference source for all entries: patent US20250215104A1

# Target or test system: T1, cynomolgus soluble urokinase plasminogen activator receptor (cynomolgus suPAR) (cynomolgus, UniProt Q9GK78 23-303, limits assumed)
# T1 construct: also called cynomolgus uPAR; cynoPLAUR-His
# T1 sequence (Q9GK78 23-303 limits assumed): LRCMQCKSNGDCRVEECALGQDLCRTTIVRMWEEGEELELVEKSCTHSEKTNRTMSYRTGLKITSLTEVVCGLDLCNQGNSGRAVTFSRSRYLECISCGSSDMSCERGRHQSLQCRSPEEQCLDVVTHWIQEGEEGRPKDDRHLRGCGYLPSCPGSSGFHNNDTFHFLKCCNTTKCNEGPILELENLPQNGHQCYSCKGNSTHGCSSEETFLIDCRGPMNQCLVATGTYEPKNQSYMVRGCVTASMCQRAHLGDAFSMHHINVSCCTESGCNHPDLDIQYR
# Experiment notes: off-rate screen of scFv clones (kdis), Octet BLI
Kindly apply the following: true (1) if koff is less than 0.0002 s⁻¹, false (0) in every other case.

# strict comparison: is reported koff < 0.0002 s⁻¹? input = suPAR_DB04_F05 (scFv, V domains shown, scFv clone from phage display) VH: QVQLVQSGAEVKKPGASVKVSCKASGYTFSDYYVHWVRQAPGQGLEWMGWIDHEGGSTSYAQKFQGRVTMTRDTSTSTVYMELSSLRSEDTAVYYCARGYDVDWFVYWGQGTLVTVSS VL: DIQMTQSPSSLSASVGDRVTITCSARQSISYMYWYQQKPGKAPKLLIYRTSNLASGVPSRFSGSGSGTDFTLTISSLQPEDFATYYCQQYHSYPPTFGGGTKVEIK false (0)

Lab note: koff threshold 0.0002 s⁻¹. Does this binder come in strictly under it? suPAR_DB04_D04 (scFv, V domains shown, scFv clone from phage display) VH: QVQLVQSGAEVKKPGASVKVSCKASGYTIKDYYMHWVRQAPGQGLEWMGWIDHENGSTIYAQKFQGRVTMTRDTSTSTVYMELSSLRSEDTAVYYCARGYDVDWFVYWGQGTLVTVSS VL: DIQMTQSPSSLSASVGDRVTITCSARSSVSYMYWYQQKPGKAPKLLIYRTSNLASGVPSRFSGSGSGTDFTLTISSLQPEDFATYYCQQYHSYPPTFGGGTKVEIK true (1)

In the record for suPAR_DB04_C05 (scFv, V domains shown, scFv clone from phage display) VH: QVQLVQSGAEVKKPGASVKVSCKASGHTLNSYYMHWVRQAPGQGLEWMGWIDHENGNTIYDQKFQGRVTMTRDTSTSTVYMELSSLRSEDTAVYYCARGYDVDWFVYWGQGTLVTVSS VL: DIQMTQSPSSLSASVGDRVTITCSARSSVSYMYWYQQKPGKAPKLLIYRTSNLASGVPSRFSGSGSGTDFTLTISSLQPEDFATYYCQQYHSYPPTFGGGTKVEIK , is koff less than 0.0002 s⁻¹? false (0)

A record lists suPAR_DB04_F09 (scFv, V domains shown, scFv clone from phage display) VH: QVQLVQSGAEVKKPGASVKVSCKASGYTFTNYYFHWVRQAPGQGLEWMGWIDHENGNTSYDQKFQGRVTMTRDTSTSTVYMELSSLRSEDTAVYYCARGYDVDWFVYWGQGTLVTVSS VL: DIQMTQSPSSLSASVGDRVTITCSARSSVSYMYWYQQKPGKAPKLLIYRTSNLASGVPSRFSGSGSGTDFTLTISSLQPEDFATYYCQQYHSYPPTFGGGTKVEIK . Is its koff below 0.0002 s⁻¹? true (1)
